These measurements were taken from the supplement of paper PMC11018630.

- Tested on: RDEB dermal fibroblasts EB71
- protocol_description: day of extracellular matrix detachment from plate (days); higher = delayed detachment (less fibrotic matrix)
- experimental_parameters: compound concentration: 10 uM
Where a name gives a salt, the structure may show the parent alone. The full ranking holds about 1,100 compounds; the median of “day of extracellular matrix detachment from plate” is about 16, and the lowest 2% start at about 10. Shown is part of a subset that was picked to be rich in the lowest values.
day of extracellular matrix detachment from plate by entry:
value_type: day of extracellular matrix detachment from plate

compound: C#C[C@]1(O)CC[C@H]2[C@@H]3CCC4=CC(=O)CC[C@@H]4[C@H]3C(=C)C[C@@]21CC [Etonogestrel]
recorded_value: 20
--
compound: Cc1cn(-c2cc(NC(=O)c3ccc(C)c(Nc4nccc(-c5cccnc5)n4)c3)cc(C(F)(F)F)c2)cn1 [Nilotinib (AMN-107)]
recorded_value: 30.5
--
compound: CN1CCN2c3ccccc3Cc3ccccc3C2C1 (configuration not stated) [Mianserin HCl]
recorded_value: 9.67
--
compound: O=C(CCCCCCNC(=O)c1cnc(N(c2ccccc2)c2ccccc2)nc1)NO [Rocilinostat (ACY-1215)]
recorded_value: 27
--
compound: NS(=O)(=O)c1ccc(C(=O)O)cc1 [Carzenide]
recorded_value: 12.3
--
compound: Cc1cc(-n2c(=O)[nH]c(=O)n(C)c2=O)ccc1Oc1ccc(SC(F)(F)F)cc1 [Toltrazuril]
recorded_value: 15.7
--
compound: C=C1[C@H](CO)[C@@H](O)C[C@@H]1n1cnc2c(=O)[nH]c(N)nc21 [Entecavir Hydrate]
recorded_value: 12.7
--
compound: O[C@H]1[C@H](O)[C@@H](O)[C@H](O)[C@@H](O)[C@H]1O [i-Inositol]
recorded_value: 13
--
compound: C[C@]12CC[C@@H]3c4ccc(O)cc4CC[C@H]3[C@@H]1CC[C@@H]2OC(=O)CCC1CCCC1 [Estradiol Cypionate]
recorded_value: 13
--
compound: O=C(NC(Cc1cc(=O)[nH]c2ccccc12)C(=O)O)c1ccc(Cl)cc1 (configuration not stated) [Rebamipide]
recorded_value: 15.7
--
compound: CCOC(=O)CC(=O)N1CCSC1COc1ccccc1OC (configuration not stated) [Moguisteine]
recorded_value: 15.3
--
compound: COc1ccc(CNc2nc(N3CCC[C@H]3CO)ncc2C(=O)NCc2ncccn2)cc1Cl [Avanafil]
recorded_value: 18
--
compound: CCN(CC)CCOCCOC(=O)C(CC)(CC)c1ccccc1 [Oxeladin Citrate]
recorded_value: 13
--
compound: CC1(C)S[C@@H]2[C@H](NC(=O)C(C(=O)O)c3ccccc3)C(=O)N2[C@H]1C(=O)O (some centres not stated) [Carbenicillin disodium]
recorded_value: 18
--
compound: CN1CCN2c3ncccc3Cc3ccccc3C2C1 (configuration not stated) [Mirtazapine]
recorded_value: 12
--
compound: C[C@H](CCC(=O)O)[C@H]1CC[C@H]2[C@@H]3[C@@H](O)C[C@@H]4C[C@H](O)CC[C@]4(C)[C@H]3CC[C@]12C [Ursodiol]
recorded_value: 10.3
--
compound: CNC[C@H](O)[C@@H](O)[C@H](O)[C@H](O)CO [Meglumine]
recorded_value: 12
--
compound: Cc1cc(/C=C/C#N)cc(C)c1Nc1ccnc(Nc2ccc(C#N)cc2)n1 [Rilpivirine]
recorded_value: 27
--
compound: O=c1[nH]c(=O)n([C@H]2C[C@H](O)[C@@H](CO)O2)cc1I [Idoxuridine]
recorded_value: 23
--
compound: CC1(C)[C@@H](OC(=O)CCC(=O)O)CC[C@]2(C)[C@H]3C(=O)C=C4[C@@H]5C[C@@](C)(C(=O)O)CC[C@]5(C)CC[C@@]4(C)[C@]3(C)CC[C@@H]12 [Carbenoxolone Sodium]
recorded_value: 13
--
compound: C[C@]12C=CC(=O)C=C1CC[C@@H]1[C@@H]2C(=O)C[C@@]2(C)[C@H]1CC[C@]2(O)C(=O)CO [Prednisone]
recorded_value: 10.3
--
compound: CC(C)C(=O)Oc1ccc(CO)cc1[C@H](CCN(C(C)C)C(C)C)c1ccccc1 [Fesoterodine Fumarate]
recorded_value: 15.7
--
compound: Cc1cccc(-c2nn3c(c2-c2ccnc4ccc(C(N)=O)cc24)CCC3)n1
recorded_value: 29.5
--
compound: CC1(C)S[C@@H]2[C@H](NC(=O)[C@H](NC(=O)N3CCN(S(C)(=O)=O)C3=O)c3ccccc3)C(=O)N2[C@H]1C(=O)O [Mezlocillin Sodium]
recorded_value: 13
--
compound: C[N+]1(C)CCC(OC(=O)C(O)(c2ccccc2)C2CCCC2)C1 (configuration not stated) [Glycopyrrolate]
recorded_value: 20.3
--
compound: O=C([O-])c1ccccc1O.[Na+] [Sodium salicylate]
recorded_value: 14
--
compound: O=C([O-])C(O)[C@H](O)[C@@H](O)[C@H](O)[C@H](O)CO.O=C([O-])C(O)[C@H](O)[C@@H](O)[C@H](O)[C@H](O)CO.[Ca+2] (some centres not stated) [Calcium Gluceptate]
recorded_value: 18
--
compound: CCN(CCCc1ccccc1)CCCc1ccccc1 [Alverine Citrate]
recorded_value: 18
--
compound: O=C(O)CCC(=O)c1ccc(-c2ccccc2)cc1 [Fenbufen]
recorded_value: 13
--
compound: N#C[C@@H]1C[C@@H]2C[C@@H]2N1C(=O)[C@@H](N)C12CC3CC(CC(O)(C3)C1)C2 [Saxagliptin hydrate]
recorded_value: 16.3
--
compound: CC1(C)S[C@@H]2[C@H](NC(=O)[C@H](N)c3ccc(O)cc3)C(=O)N2[C@H]1C(=O)O [Amoxicillin Sodium]
recorded_value: 15.7
--
compound: Cc1nc(C)c(Cl)c(O)c1Cl [Clopidol]
recorded_value: 18
